test system: GRASP, Q7Z6J2
Sequence (Q7Z6J2 96-193): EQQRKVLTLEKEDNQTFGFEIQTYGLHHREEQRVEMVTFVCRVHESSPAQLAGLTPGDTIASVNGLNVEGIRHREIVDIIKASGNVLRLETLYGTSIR
method description: holdup assay
Set-up: key: below the threshold = too weak to quantify, mostly under pKd 3.1 to 4
setup conditions: plain residues with an end cap or a label only (N-terminal biotin on a linker: ado-ado)
Label true when pKd is at or above 4; otherwise label false.

Example cases with answers are listed next.
binder: AKPSRISTVV [IQSEC2, Q5JU85]
classification: true

binder: DDENIRTSDV [PLEKHA2, Q9HB19]
classification: false

binder: RHGSCVETSL [TMEM151B, Q8IW70]
classification: true

binder: RRRESYSTTV [EVI5, O60447]
classification: true

binder: LPHGHSTTRV [NLGN4X, Q8N0W4]
classification: true

binder: DDEDRLVIEI [ZNF831, Q5JPB2]
classification: false

Query: Hi team, for LPAHHNATRL [SLC34A1, Q06495;Q06495-1] , is the recorded pKd at or above 4?
Reply: true
